Tested on: primary human hepatic stellate cells (donor 1)
Assay: scaled lipid accumulation score (0 = DMSO-like, 1 = nortriptyline-like); higher = stronger HSC inactivation (lipid re-accumulation), active = hit call of the paper
Settings: library stock concentration: 10 mM; 48 h
Where a name gives a salt, the structure may show the parent alone. Among all 5,800 compounds or so, about 620 (11%) showed activity.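 How the source made its calls: active = score above a cut-off or among the top three wells of a plate; in these data no inactive exceeds 0.85.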 This is one part of a sample in which actives are shown more often than they occur.
Respond using exactly one of the listed classes: active, inactive

## Task Lab log entry: COc1cc2ncnc(Nc3ccc(F)c(Cl)c3)c2cc1NC(=O)C=CCN1CCCCC1 — outcome as called in the assay?
## Result active

## Task Lab log entry: OC[C@H]1O[C@H](O[C@H]2[C@H](O)[C@@H](O)C(O)O[C@@H]2CO)[C@H](O)[C@@H](O)[C@@H]1O (stereo partly drawn) — outcome as called in the assay?
## Result inactive

## Task Lab log entry: O=C(Nc1ccccc1)Nc1ccc(-c2ccc(C(=O)[C@@H]3CCC[C@H]3C(=O)O)cc2)cc1 — outcome as called in the assay?
## Result inactive

## Task Lab log entry: NC(=O)N1c2ccccc2CC(O)c2ccccc21 (stereo not drawn) [Licarbazepine] — outcome as called in the assay?
## Result inactive

## Task Lab log entry: COC(=O)C1=C(C)NC(C)=C(C(=O)OCCCN2CCC(c3ccccc3)(c3ccccc3)CC2)[C@H]1c1cccc([N+](=O)[O-])c1 [(S)-(+)-Niguldipine hydrochloride] — outcome as called in the assay?
## Result inactive

## Task Lab log entry: CC(NC(=O)C(O)c1cc(F)cc(F)c1)C(=O)NC1C(=O)N(C)c2ccccc2-c2ccccc21 (stereo not drawn) — outcome as called in the assay?
## Result inactive

## Task Lab log entry: C1CNCCN1 [Piperazine] — outcome as called in the assay?
## Result inactive

## Task Lab log entry: CC(C)(S)C(N)C(=O)O (racemic) — outcome as called in the assay?
## Result inactive

## Task Lab log entry: Cl.Cl.O=S(=O)(NCCNC/C=C/c1ccc(Br)cc1)c1cccc2cnccc12 [H 89 dihydrochloride] — outcome as called in the assay?
## Result active

## Task Lab log entry: CN(C)[C@@H]1C(O)=C(C(N)=O)C(=O)[C@@]2(O)C(O)=C3C(=O)c4c(O)cccc4[C@@](C)(O)[C@H]3[C@H](O)[C@@H]12 [Oxytetracycline] — outcome as called in the assay?
## Result inactive

## Task Lab log entry: Cn1c(=O)cc(N2CCC[C@@H](N)C2)n(Cc2cc(F)ccc2C#N)c1=O [Trelagliptin] — outcome as called in the assay?
## Result inactive

## Task Lab log entry: OC[C@H]1O[C@H]([S-])[C@H](O)[C@@H](O)[C@@H]1O.[Au+] [Aurothioglucose] — outcome as called in the assay?
## Result inactive

## Task Lab log entry: CC(=O)c1ccc(S(=O)(=O)NC(=O)NC2CCCCC2)cc1 [Acetohexamide] — outcome as called in the assay?
## Result inactive

## Task Lab log entry: Nc1nc(-c2ccc(Cl)c(Cl)c2)c(-c2ccncc2)s1 [CGH 2466 dihydrochloride] — outcome as called in the assay?
## Result inactive

## Task Lab log entry: CN(C)CCC[C@@]1(c2ccc(F)cc2)OCc2cc(C#N)ccc21 — outcome as called in the assay?
## Result inactive

## Task Lab log entry: CCc1oc2ccccc2c1C(=O)c1cc(Br)c(O)c(Br)c1 [Benzbromarone] — outcome as called in the assay?
## Result inactive

## Task Lab log entry: CN(C)CCCC1(c2ccc(F)cc2)OCc2cc(C#N)ccc21 (stereo not drawn) [Citalopram] — outcome as called in the assay?
## Result inactive

## Task Lab log entry: CCCCc1oc2ccccc2c1C(=O)c1cc(I)c(OCCN(CC)CC)c(I)c1.Cl [Amiodarone HCl] — outcome as called in the assay?
## Result active

## Task Lab log entry: CNCCNS(=O)(=O)c1cccc2cnccc12 [H-8 dihydrochloride] — outcome as called in the assay?
## Result inactive

## Task Lab log entry: O=C(O)COc1cccc(-c2ocnc2-c2nc(-c3ccccc3)c(-c3ccccc3)o2)c1 — outcome as called in the assay?
## Result inactive

## Task Lab log entry: Cc1nn(C)c(COc2ccc(N3CCN(S(=O)(=O)N(C)C)CC3)cc2)c1-c1cccc2c(CCCOc3cccc4ccccc34)c(C(=O)O)n(CCN3CCOCC3)c12 — outcome as called in the assay?
## Result inactive

## Task Lab log entry: Cc1ccc(-c2csc(NC(=O)c3ccccc3)n2)c(C)c1 — outcome as called in the assay?
## Result inactive

## Task Lab log entry: CN(C)[C@@H]1CCc2[nH]c3ccc(NC(=O)c4ccc(F)cc4)cc3c2C1.Cl — outcome as called in the assay?
## Result active

## Task Lab log entry: COc1cc2ncnc(Nc3ccc(F)c(Cl)c3)c2cc1NC(=O)/C=C/CN1CCCCC1 — outcome as called in the assay?
## Result inactive

## Task Lab log entry: CC(C)N(C[C@H]1O[C@@H](n2cnc3c(N)ncnc32)[C@H](O)[C@@H]1O)[C@H]1C[C@@H](CCc2nc3cc(C(C)(C)C)ccc3[nH]2)C1 — outcome as called in the assay?
## Result inactive

## Task Lab log entry: Cc1ccc(NC(=O)c2ccc(CN3CCN(C)CC3)cc2)cc1Nc1nc(-c2cccnc2)cs1 [Masitinib (AB1010)] — outcome as called in the assay?
## Result active

## Task Lab log entry: CCCCN(CC)c1nc(C)nc2c1c(C)cn2-c1c(C)cc(C)cc1C — outcome as called in the assay?
## Result inactive

## Task Lab log entry: CCCCc1oc2ccccc2c1C(=O)c1cc(I)c(OCCN(CC)CC)c(I)c1.Cl [Amiodarone hydrochloride] — outcome as called in the assay?
## Result active

## Task Lab log entry: CN(C)CCC[C@@]1(c2ccc(F)cc2)OCc2cc(C#N)ccc21 [Escitalopram Oxalate] — outcome as called in the assay?
## Result inactive

## Task Lab log entry: CCc1oc2ccccc2c1C(=O)c1cc(Br)c(O)c(Br)c1 — outcome as called in the assay?
## Result inactive

## Task Lab log entry: CC(=O)OCC(=O)[C@@]1(O)[C@H](OC(C)=O)C[C@H]2[C@@H]3CCC4=CC(=O)C=C[C@]4(C)[C@@]3(F)[C@@H](O)C[C@@]21C [Triamcinolone diacetate] — outcome as called in the assay?
## Result inactive

## Task Lab log entry: Br.CN(C)CCCC1(c2ccc(F)cc2)OCc2cc(C#N)ccc21 (stereo not drawn) [Citalopram hydrobromide] — outcome as called in the assay?
## Result active

## Task Lab log entry: CCc1cc2c(cc1N1CCC(N3CCOCC3)CC1)C(C)(C)c1[nH]c3cc(C#N)ccc3c1C2=O — outcome as called in the assay?
## Result active
